Assay: Acute toxicity, intraperitoneal
Settings: mouse, in vivo, ip, male Swiss mice, intraperitoneal, 7 days observation; preliminary, by graphic interpolation; read-out: acute toxicity (LD50 / DL50)
test readout: LD50 at 168 h (mg/kg)
Give just the number in mg/kg; leave the unit off.

Looking for the measured LD50 at 168 h of COc1cc(C(=O)NCc2cccnc2)cc(C(=O)NCc2cccnc2)c1OC1CCC1 [Example 19] , can you help?
254

Input COc1c(Cl)cc(C(=O)NCc2cccnc2)cc1C(=O)NCc1cccnc1 [Example 23]
425

Input CC(C)CCOc1ccc(C(=O)NCc2ccncc2)cc1C(=O)NCc1ccncc1 [Example 63]
185

Input O=C(NCc1cccnc1)c1cc(Cl)c(O)c(C(=O)NCc2cccnc2)c1 [Example 32]
425

Input CC=CCOc1ccc(C(=O)NCc2cccnc2)cc1C(=O)NCc1cccnc1 [Example 11]
178

Input CCC(C)Oc1ccc(C(=O)NCc2cccnc2)cc1C(=O)NCc1cccnc1 (stereo not drawn) [Example 14]
227
